Study target: Bromodomain adjacent to zinc finger domain protein 2B (Homo sapiens) (UniProt Q9UIF8)
Sequence (Q9UIF8 whole entry, looked up, the tested form may be a part): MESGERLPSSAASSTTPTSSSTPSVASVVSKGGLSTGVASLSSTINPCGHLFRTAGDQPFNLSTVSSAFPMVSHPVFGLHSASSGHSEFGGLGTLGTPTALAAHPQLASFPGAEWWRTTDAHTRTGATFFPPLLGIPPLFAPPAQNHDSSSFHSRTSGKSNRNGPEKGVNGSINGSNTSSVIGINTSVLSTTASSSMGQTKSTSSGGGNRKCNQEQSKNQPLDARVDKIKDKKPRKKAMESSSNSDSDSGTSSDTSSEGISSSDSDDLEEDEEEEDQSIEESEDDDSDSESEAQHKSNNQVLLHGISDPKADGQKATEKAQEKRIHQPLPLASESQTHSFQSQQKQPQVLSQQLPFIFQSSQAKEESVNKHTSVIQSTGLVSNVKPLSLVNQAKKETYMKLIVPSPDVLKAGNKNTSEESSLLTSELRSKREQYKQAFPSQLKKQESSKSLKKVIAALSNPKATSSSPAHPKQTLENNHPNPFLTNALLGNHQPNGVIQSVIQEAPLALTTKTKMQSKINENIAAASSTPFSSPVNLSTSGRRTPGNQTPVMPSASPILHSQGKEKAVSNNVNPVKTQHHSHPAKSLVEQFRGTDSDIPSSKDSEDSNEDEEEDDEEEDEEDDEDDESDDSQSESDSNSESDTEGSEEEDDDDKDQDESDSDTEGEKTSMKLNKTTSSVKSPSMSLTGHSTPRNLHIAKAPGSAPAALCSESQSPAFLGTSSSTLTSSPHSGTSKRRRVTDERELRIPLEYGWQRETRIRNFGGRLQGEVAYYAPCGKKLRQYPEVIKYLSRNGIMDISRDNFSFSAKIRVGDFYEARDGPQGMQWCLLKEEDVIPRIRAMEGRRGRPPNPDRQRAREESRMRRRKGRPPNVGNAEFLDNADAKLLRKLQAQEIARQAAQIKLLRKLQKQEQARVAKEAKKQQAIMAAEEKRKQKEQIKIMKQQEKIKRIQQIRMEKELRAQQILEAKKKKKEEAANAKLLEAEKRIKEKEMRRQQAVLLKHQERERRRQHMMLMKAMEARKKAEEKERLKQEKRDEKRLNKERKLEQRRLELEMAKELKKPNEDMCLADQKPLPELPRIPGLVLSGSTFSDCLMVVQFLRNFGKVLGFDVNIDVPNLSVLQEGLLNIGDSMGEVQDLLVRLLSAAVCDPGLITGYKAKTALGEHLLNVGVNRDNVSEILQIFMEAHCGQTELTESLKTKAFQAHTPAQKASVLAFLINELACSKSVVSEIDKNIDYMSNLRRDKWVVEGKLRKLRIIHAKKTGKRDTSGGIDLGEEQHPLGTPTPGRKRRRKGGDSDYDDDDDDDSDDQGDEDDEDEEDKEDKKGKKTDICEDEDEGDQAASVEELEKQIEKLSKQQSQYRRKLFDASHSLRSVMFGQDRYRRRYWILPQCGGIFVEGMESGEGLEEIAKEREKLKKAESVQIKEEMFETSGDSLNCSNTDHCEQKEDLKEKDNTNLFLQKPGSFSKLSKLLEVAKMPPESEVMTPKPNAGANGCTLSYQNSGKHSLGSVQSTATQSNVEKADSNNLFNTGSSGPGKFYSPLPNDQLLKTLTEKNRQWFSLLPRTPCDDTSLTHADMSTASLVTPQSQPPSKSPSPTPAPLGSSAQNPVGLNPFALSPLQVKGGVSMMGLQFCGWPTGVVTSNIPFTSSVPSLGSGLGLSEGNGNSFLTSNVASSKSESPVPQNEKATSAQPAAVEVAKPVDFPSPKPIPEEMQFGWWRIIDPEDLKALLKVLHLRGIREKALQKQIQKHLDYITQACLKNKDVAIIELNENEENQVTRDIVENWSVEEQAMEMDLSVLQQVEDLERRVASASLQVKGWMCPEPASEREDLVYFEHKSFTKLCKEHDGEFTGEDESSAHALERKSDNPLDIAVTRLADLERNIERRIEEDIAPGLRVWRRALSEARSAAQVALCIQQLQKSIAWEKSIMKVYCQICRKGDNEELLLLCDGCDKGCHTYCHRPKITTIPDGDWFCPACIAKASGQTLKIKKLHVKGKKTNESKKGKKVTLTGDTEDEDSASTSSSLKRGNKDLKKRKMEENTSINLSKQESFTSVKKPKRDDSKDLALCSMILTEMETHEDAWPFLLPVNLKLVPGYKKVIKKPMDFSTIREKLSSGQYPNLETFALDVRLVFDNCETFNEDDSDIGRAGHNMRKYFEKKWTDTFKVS
Measurement description: qHTS Assay for Inhibitors of BAZ2B; further: nearly all actives have a fitted effect of over 60% in size
Condition context: AlphaScreen BAZ2B-H3K14Ac peptide displacement; series mostly up to 114 µM
Among all 360,000 compounds or so, about 16,000 (4.4%) were called active. Roughly 9% stayed inconclusive and do not appear here. The call rests on the fitted dose curve; in most records, active means well fitted inhibition curve with a large enough effect; inconclusive means small, poorly fitted or top-dose-only effect; inactive means no such curve, though single readings can be large or run the other way. For the sample, actives were picked, then their nearest neighbours and some compounds at random.
Outcomes: 1 (yes) (active), 0 (no) (inactive)

Compound: COc1ccc(-c2nnc(SCC(=O)c3ccco3)n2-c2ccccc2)cc1
Discrete label: 0 (no)

Compound: COc1ccc(-c2cc(C(F)(F)F)nc(SCC(=O)N(C)Cc3ccccc3)n2)cc1OC
Discrete label: 0 (no)

Compound: Cc1ccc(C(=O)O)cc1-c1ccc(/C=C2\SC(=O)N(CC(=O)Nc3ccc4c(c3)OCO4)C2=O)o1
Discrete label: 1 (yes)

Compound: O=S(=O)(N/N=C\c1cccn1-c1ccccc1)c1ccc2ccccc2c1
Discrete label: 1 (yes)

Compound: COc1ccc(OC)c2[nH]c(=O)c(CCNC(=O)C(=O)c3c[nH]c4ccccc34)cc12
Discrete label: 1 (yes)

Compound: CCS(=O)(=O)c1ncc(N(Cc2ccc(F)cc2)Cc2ccco2)c(C(=O)Nc2cc(C)ccc2C)n1
Discrete label: 0 (no)

Compound: Cc1cc(-c2ccc(C)c(S(=O)(=O)Nc3ccc(S(N)(=O)=O)cc3)c2)on1
Discrete label: 0 (no)

Compound: COc1ccc(N2CC(NS(=O)(=O)c3ccc4ccccc4c3)CC2=O)cc1 (stereo not given)
Discrete label: 0 (no)

Compound: Cc1nc(NC(=O)c2cccc(Cl)c2)sc1-c1csc(Nc2cccc(Cl)c2)n1
Discrete label: 0 (no)

Compound: O=C(COc1ccc(/C=N/NS(=O)(=O)c2ccccc2)cc1)NCCc1ccccc1
Discrete label: 0 (no)

Compound: Cc1ccc(-n2c(SCC(=O)c3ccccc3)nc3c([nH]c4ccccc43)c2=O)cc1
Discrete label: 0 (no)

Compound: C#CCOCCOCCOCCNc1nc(N2CCN(C(=O)CCCCCCCCCCNC(=O)[C@H]([C@@H](C)CC)n3cc(CCCCN=C(N)N)nn3)CC2)nc(N2CCN(C(=O)CCCCCCCCCCNC(=O)[C@H](CO)n3cc(CCCSC)nn3)CC2)n1
Discrete label: 1 (yes)

Compound: O=C(CCN1C(=O)/C(=C/c2cccs2)SC1=S)NNC(=O)c1cccc(O)c1
Discrete label: 0 (no)

Compound: Cc1ccc(C(=O)Nc2ccc3c(c2)OCO3)cc1S(=O)(=O)N1CCCCC1
Discrete label: 0 (no)

Compound: CCOC(=O)c1c(NC(=S)NC)sc2c1CCCC2
Discrete label: 0 (no)

Compound: COc1ccc(/C=C/C(=O)c2cc(Br)ccc(=O)c2O)cc1
Discrete label: 1 (yes)

Compound: CCN(CC)c1ccc(NS(=O)(=O)c2cc(-c3cc(C)no3)ccc2C)c(C)c1
Discrete label: 1 (yes)

Compound: CCOC(=O)c1csc(NC(=O)Nc2cccc(OC)c2)n1
Discrete label: 0 (no)

Compound: Cc1ccc(C(=O)Nc2cc3c(cc2N2CCCC2)n(C)c(=O)c(=O)n3C)cc1
Discrete label: 0 (no)

Compound: CCC(=O)Nc1nc(C)c(C(=O)Nc2cccc(Cl)c2)s1
Discrete label: 0 (no)

Compound: COc1cccc(CC(=O)Nc2ccc(-c3csc(C)n3)cc2)c1
Discrete label: 0 (no)

Compound: COc1ccc(C(=O)/C=C/c2cccnc2)c(OC)c1
Discrete label: 0 (no)

Compound: O=C(NCc1ccc(Cl)cc1)NCc1ccc(Cl)cc1
Discrete label: 0 (no)

Compound: COC(=O)c1c(NC(=O)C(C)Oc2ccc(Cl)c(C)c2)sc(C)c1C (stereo not given)
Discrete label: 0 (no)

Compound: COc1ccc(OC)c2[nH]c(=O)c(CCNC(=O)C(C)(C)C)cc12
Discrete label: 0 (no)

Compound: O=C(NCCCc1ccccc1)C(=O)c1c[nH]c2ccccc12
Discrete label: 0 (no)

Compound: CCc1nnc(NC(=O)CSc2nnc(Cc3ccccc3)n2-c2ccc(OC)cc2)s1
Discrete label: 0 (no)

Compound: CCOc1cccc(NC(=O)CSc2ncc(-c3ccc(Cl)cc3)[nH]2)c1
Discrete label: 0 (no)

Compound: CC(O)CN(Cc1ccc(Cl)cc1)CC(C)O (stereo not given)
Discrete label: 1 (yes)

Compound: C=CCCC(=O)Nc1nc(C)c(-c2csc(Nc3ccc(Cl)cc3)n2)s1
Discrete label: 1 (yes)

Compound: Cn1cccc1/C=C1\SC(=O)N(CC(=O)Nc2ccc(F)cc2)C1=O
Discrete label: 0 (no)

Compound: CC[C@@H](C)[C@@H](C(=O)N1CCN(C(=O)OC(C)(C)C)CC1)n1cc(CCC(=O)O)nn1
Discrete label: 0 (no)

Compound: COc1ccc(/C=N/OCC(=O)N(Cc2ccccc2)c2ccccc2C(=O)O)cc1
Discrete label: 0 (no)

Compound: O=C(Nc1ccc(-c2nc3cc(NC(=O)c4ccccc4Cl)ccc3o2)cc1)c1ccccc1Cl
Discrete label: 0 (no)

Compound: COc1ccc(NCc2nnc(SCc3ccccc3)n2-c2ccc(OC)cc2)cc1
Discrete label: 1 (yes)

Compound: CCn1cc2nc(SCc3ccccc3Cl)n(CCc3ccccc3)c(=O)c2n1
Discrete label: 0 (no)

Compound: O=C(CSc1nc2ccccc2nc1Cc1ccccc1)N1CCCCC1
Discrete label: 0 (no)

Compound: C#CCOCCOCCOCCNc1nc(N2CCN(C(=O)CCCCCCCCCCNC(=O)Cn3cc(CCCCCN)nn3)CC2)nc(N2CCN(C(=O)CCCCCCCCCCNC(=O)[C@H](CO)n3cc(CCCSC)nn3)CC2)n1
Discrete label: 1 (yes)

Compound: O=C(CCCCCN1C(=O)c2cccc3cccc(c23)C1=O)NCc1ccco1
Discrete label: 0 (no)

Compound: Cc1ccc(C(=O)Nc2nc(-c3ccccc3)ns2)cc1
Discrete label: 0 (no)

###

Study target: Bromodomain adjacent to zinc finger domain protein 2B (Homo sapiens) (UniProt Q9UIF8)
Measurement description: qHTS Assay for Inhibitors of BAZ2B; further: nearly all actives have a fitted effect of over 60% in size
Condition context: AlphaScreen BAZ2B-H3K14Ac peptide displacement; series mostly up to 114 µM
The whole screen tested about 360,000 compounds, of which about 16,000 (4.4%) were called active. Not shown: some 9% with an inconclusive outcome. Calls follow the shape of the dose curve; as a rule, active = well fitted inhibition curve with a large enough effect; inconclusive = small, poorly fitted or top-dose-only effect; inactive = no such curve, though single readings can be large or run the other way. Many of the other results were omitted from the sample, so actives are more common in it than they were.
Possible outcomes: t for active, f for inactive

Compound: CC(C)(C)NC(=O)COC(=O)c1cc(Cl)ccc1[N+](=O)[O-]
Discrete label: f

Compound: COc1ccc(C2=NC3(CCCCC3)N(CC(=O)Nc3ccc(C(C)C)cc3)C2=O)cc1
Discrete label: f

Compound: CCC(=O)N1CCc2cc(Br)cc(S(=O)(=O)CCC(=O)NCCc3ccc(OC)c(OC)c3)c21
Discrete label: f

Compound: CCc1ccc(-n2nc(C)c3c(C)cc(=O)n(CC(=O)Nc4ccc(F)cc4C)c32)cc1
Discrete label: f

Compound: Cc1ccc(NC2=C(c3ccc(C(F)(F)F)cc3)C(=O)c3ccccc32)cc1F
Discrete label: f

Compound: CN(c1cccc(NC(=O)Nc2ccc(Cl)cc2)c1)S(C)(=O)=O
Discrete label: f

Compound: O=C1OC(c2ccc(Cl)cc2)=N/C1=C\c1cccnc1
Discrete label: f

Compound: CC(=O)c1sc(NC(=O)C2=NN(c3ccccc3)C(=O)CC2)nc1C
Discrete label: t

Compound: O=C(N/N=C/c1ccccn1)C12CC3CC(CC(C3)C1)C2
Discrete label: f

Compound: CCc1ccc(NC(=O)CN2CCSc3ccc(S(=O)(=O)N4CCCC4)cc32)cc1
Discrete label: f

Compound: CC(=O)c1sc(N/N=C\c2ccc(C)cc2)nc1C
Discrete label: f

Compound: Cc1oc2ccc(O)c(CN3CCOCC3)c2c1C(=O)Nc1cccc(Cl)c1C
Discrete label: f

Compound: Cc1cccc(NC(=O)C2CCCN2S(=O)(=O)c2cccc3nsnc23)c1C (stereo unspecified)
Discrete label: f

Compound: CCOc1ccccc1C(=O)Nc1ccc(S(=O)(=O)N2CCCCC2c2cccnc2)cc1 (stereo unspecified)
Discrete label: f

Compound: O=C(N/N=C/c1ccccn1)c1cccnc1
Discrete label: t

Compound: COc1ccc(CCNc2ncnc3c2cnn3-c2ccc(C)cc2)cc1
Discrete label: f

Compound: CCOC(=O)c1cccc(NC(=O)c2cc(S(=O)(=O)N3CCCC(C)C3)cn2C)c1 (stereo unspecified)
Discrete label: f

Compound: Cc1cc(Nc2cccc(C(F)(F)F)c2)nc2ccc(NC(=O)c3ccc(=O)[nH]c3)cc12
Discrete label: f

Compound: CCCC(=O)OCC(=O)Nc1cc(Cl)ccc1[N+](=O)[O-]
Discrete label: t

Compound: Cc1ccc(Cl)cc1NC(=O)/C(C#N)=C\c1cn(Cc2ccc(F)cc2)c2ccccc12
Discrete label: f

Compound: CCc1ccccc1NC(=O)Cc1ccc(NC(=O)N2CCCCc3ccccc32)cc1
Discrete label: f

Data origin: PubChem BioAssay AID504333
